Test system: Escherichia coli
Assay: Antimicrobial activity against Escherichia coli RCMB 010052 assessed as absence of turbidity after 24 hrs
Type: functional
Details: RCMB 010052, 24 h
endpoint_label: MIC (µg/mL)
Answers are plain numbers, in µg/mL.

Cc1noc(NS(=O)(=O)c2ccc(-n3c(S)c(C#N)c(-c4cccnc4)c(C#N)c3=O)cc2)c1C    3.9
C=CCNc1sc(C(C)=O)c(N)c1C(=O)Nc1ccc(S(=O)(=O)Nc2onc(C)c2C)cc1    7.81
COc1ccc(-c2[nH]nc(N)c2C(=O)Nc2ccc(S(=O)(=O)Nc3onc(C)c3C)cc2)cc1    7.81
CCOc1ccc(-n2nc(C(=O)Nc3ccc(S(=O)(=O)Nc4onc(C)c4C)cc3)c(N)c2C#N)cc1    31.2
Cc1noc(NS(=O)(=O)c2ccc(-n3c(S)c(C#N)c(-c4ccco4)c(C#N)c3=O)cc2)c1C    0.98

Would you mind giving MIC for every compound in the list below?
1. Cc1noc(NS(=O)(=O)c2ccc(-n3c(S)c(C#N)c(-c4ccc(Cl)cc4)c(C#N)c3=O)cc2)c1C
2. CC(=O)OC[C@H]1O[C@@H](Sc2c(C#N)c(-c3ccc(Cl)cc3)c(C#N)c(=O)n2-c2ccc(S(=O)(=O)Nc3onc(C)c3C)cc2)[C@H](OC(C)=O)[C@@H](OC(C)=O)[C@@H]1OC(C)=O
3. Cc1noc(NS(=O)(=O)c2ccc(NC(=O)/C(C#N)=C/N(C)C)cc2)c1C

Out:
[0.98, 0.24, 31.2]
